- MEASUREMENT TARGET: CFTR (Homo sapiens, UniProt P13569, DEL508-508)
- Construct: endogenous in cells; host or cells: primary human bronchial epithelial cells from CF subjects (F508del/MF-HBE), differentiated at air-liquid interface
- Sequence (P13569 with tags, fused parts or gaps DEL508-508): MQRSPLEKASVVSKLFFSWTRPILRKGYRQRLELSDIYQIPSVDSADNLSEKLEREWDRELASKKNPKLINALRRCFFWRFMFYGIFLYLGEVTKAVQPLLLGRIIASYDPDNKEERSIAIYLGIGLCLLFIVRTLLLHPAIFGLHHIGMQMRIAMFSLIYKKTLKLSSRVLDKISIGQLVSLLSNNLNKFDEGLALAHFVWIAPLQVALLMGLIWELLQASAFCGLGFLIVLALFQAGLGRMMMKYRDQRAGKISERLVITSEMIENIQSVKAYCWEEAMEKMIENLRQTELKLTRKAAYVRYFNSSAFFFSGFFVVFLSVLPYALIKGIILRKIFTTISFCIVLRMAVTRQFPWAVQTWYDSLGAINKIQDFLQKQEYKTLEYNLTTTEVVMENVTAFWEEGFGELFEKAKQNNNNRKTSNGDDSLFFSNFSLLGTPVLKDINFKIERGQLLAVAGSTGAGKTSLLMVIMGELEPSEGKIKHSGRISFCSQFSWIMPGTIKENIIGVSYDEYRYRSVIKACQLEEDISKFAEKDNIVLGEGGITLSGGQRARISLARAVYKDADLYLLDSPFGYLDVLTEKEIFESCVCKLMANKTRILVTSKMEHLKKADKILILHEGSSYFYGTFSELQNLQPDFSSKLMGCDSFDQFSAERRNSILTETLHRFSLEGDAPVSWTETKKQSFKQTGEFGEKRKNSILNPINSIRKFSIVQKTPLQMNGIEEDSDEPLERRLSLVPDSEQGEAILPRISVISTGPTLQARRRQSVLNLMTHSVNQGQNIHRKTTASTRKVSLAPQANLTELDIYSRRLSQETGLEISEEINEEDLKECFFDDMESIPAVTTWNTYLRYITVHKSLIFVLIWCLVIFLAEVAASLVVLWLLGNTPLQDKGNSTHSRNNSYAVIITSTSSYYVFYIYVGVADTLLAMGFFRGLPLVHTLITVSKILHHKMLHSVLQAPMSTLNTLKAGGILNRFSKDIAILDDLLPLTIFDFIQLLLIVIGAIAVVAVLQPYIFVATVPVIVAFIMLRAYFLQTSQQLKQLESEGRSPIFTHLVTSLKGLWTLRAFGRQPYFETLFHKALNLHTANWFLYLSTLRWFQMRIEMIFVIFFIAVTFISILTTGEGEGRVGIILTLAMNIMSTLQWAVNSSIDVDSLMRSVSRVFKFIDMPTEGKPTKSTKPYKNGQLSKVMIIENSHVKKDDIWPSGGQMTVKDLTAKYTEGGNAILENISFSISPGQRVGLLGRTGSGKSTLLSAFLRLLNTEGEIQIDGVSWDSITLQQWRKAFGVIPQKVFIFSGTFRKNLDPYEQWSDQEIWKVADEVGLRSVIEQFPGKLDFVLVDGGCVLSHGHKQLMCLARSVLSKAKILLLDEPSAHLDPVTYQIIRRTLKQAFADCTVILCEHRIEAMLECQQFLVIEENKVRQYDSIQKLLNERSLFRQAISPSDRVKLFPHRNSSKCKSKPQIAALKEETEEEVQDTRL
- MEASUREMENT DESCRIPTION: HBE assay: Ussing chamber assay of CFTR-mediated short-circuit currents
- Type: cell-based
- STUDY CONDITIONS: Table 11; read-out: HBE Max Activity (%)
- Description: 1. Ussing Chamber Assay of CFTR-Mediated Short-Circuit Currents […] To isolate the CFTR-mediated short-circuit (ISC) current, F508del/MF-HBE grown on Costar® Snapwell™ cell culture inserts were mounted in an Ussing chamber and the transepithelial ISC was measured under voltage-clamp recording conditions (Vhold=0 mV) at 37° C. […] The CFTR-mediated ISC (μA/cm^2) for each condition was determined from the peak forskolin response to the steady-state current following inhibition. […]
# Emax per record follows

As a guide, the following entries are already answered.
In [3]: df
Out[3]:
                               entry_smiles  reported
0  Cc1cccc(C)c1-c1cc2nc(n1)NS(=O)(=O)c1cccc(c1)C(=O)N(Cc1cccc(C3=CCCC3)n1)[C@H](CC(C)(C)C)CO2     > 60%
1  Cc1cccc(C)c1-c1cc2nc(n1)NS(=O)(=O)c1cccc(c1)C(=O)N(Cc1ncc(N3CCC(C)CC3)cn1)[C@H](CC(C)(C)C)CO2     > 60%
2  Cc1cccc(C)c1-c1cc2nc(n1)NS(=O)(=O)c1cccc(c1)C(=O)N(Cc1ncc(C(C)(C)C)cn1)[C@H](CC(C)(C)C)CO2     > 60%
3  Cc1cccc(C)c1-c1cc2nc(n1)NS(=O)(=O)c1cccc(c1)C(=O)N(Cc1nccc(C(C)(C)O)n1)[C@H](CC(C)(C)C)CO2     > 60%
4  Cc1cccc(C)c1-c1cc2nc(n1)NS(=O)(=O)c1cccc(c1)C(=O)N(Cc1ncc(N(C(C)C)C(C)C)cn1)[C@H](CC(C)(C)C)CO2     > 60%

Prompt line: Entry `CCOc1ccc(CN2C(=O)c3cccc(c3)S(=O)(=O)Nc3nc(cc(-c4c(C)cccc4C)n3)OC[C@H]2CC(C)(C)C)nc1` has what Emax?
Response line: > 60%

Prompt line: Please answer likewise for `Cc1cccc(C)c1-c1cc2nc(n1)NS(=O)(=O)c1cccc(c1)C(=O)N(Cc1cc(C3CC3)no1)[C@H](CC(C)(C)C)CO2`
Response line: > 60%

Prompt line: Please answer likewise for `Cc1cccc(C)c1-c1cc2nc(n1)NS(=O)(=O)c1cccc(c1)C(=O)N(Cc1nccc(NC3CCCCC3)n1)[C@H](CC(C)(C)C)CO2`
Response line: > 60%

Prompt line: Please answer likewise for `Cc1cccc(C)c1-c1cc2nc(n1)NS(=O)(=O)c1cccc(c1)C(=O)N(Cc1cccc(C(C)(C)C)n1)[C@H](CC(C)(C)C)CO2`
Response line: > 60%

Prompt line: Please answer likewise for `Cc1cccc(OCc2ccccc2)c1-c1cc2nc(n1)NS(=O)(=O)c1cccc(c1)C(=O)N(Cc1ccc(N3CCOCC3)cn1)[C@H](CC(C)(C)C)CO2`
Response line: > 60%

Prompt line: Please answer likewise for `Cc1cccc(C)c1-c1cc2nc(n1)NS(=O)(=O)c1cccc(c1)C(=O)N(CCc1ccc(N3CCC(C)(C)C3)nc1)[C@H](CC(C)(C)C)CO2`
Response line: > 60%

Prompt line: Please answer likewise for `Cc1cccc(C)c1-c1cc2nc(n1)NS(=O)(=O)c1cccc(c1)C(=O)N(Cc1cccc(N3[C@H](C)CC[C@@H]3C)n1)[C@H](CC(C)(C)C)CO2`
Response line: 30 to 60%

---

- MEASUREMENT TARGET: CFTR (Homo sapiens, UniProt P13569)
- Sequence (P13569 with tags, fused parts or gaps DEL508-508): as above
- MEASUREMENT DESCRIPTION: Membrane potential dye, Enteroid Assay B
- Assay type: cell-based
- STUDY CONDITIONS: Table 8; human enteroid cells, 18-24 hours; acute 10 μM forskolin and 300 nM ivacaftor; read-out: Ent. B EC50
OBSERVABLE: EC50

As a guide, the following entries are already answered.
COMPOUND	REPORTED
Cc1cccc(C)c1-c1cc2nc(n1)NS(=O)(=O)c1cc(nn1C)C(=O)N(Cc1ncccn1)[C@H](CC(C)(C)C)CO2	< 1 µM
Cc1cccc(C)c1-c1cc2nc(n1)NS(=O)(=O)c1cccc(c1)C(=O)N(Cc1ccc(C(N)=O)cn1)[C@H](CC(C)(C)C)CO2	< 1 µM
Cc1cccc(C)c1-c1cc2nc(n1)NS(=O)(=O)c1cccc(c1)C(=O)N(Cc1ncccn1)[C@H](CCC(C)(C)O)CO2	1 to 3 µM
Cc1cccc(C)c1-c1cc2nc(n1)NS(=O)(=O)c1cc(nn1C)C(=O)N(Cc1cccnn1)[C@H](CC(C)(C)C)CO2	1 to 3 µM
Cc1cccc(C)c1-c1cc2nc(n1)NS(=O)(=O)c1cccc(c1)C(=O)N(CC1Cc3ccccc3C1)[C@H](CC(C)(C)C)CO2	< 1 µM
Cc1cccc(C)c1-c1cc2nc(n1)NS(=O)(=O)c1cccc(c1)CN(CCCCO)[C@H](CC(C)C)CO2	< 1 µM
Cc1cccc(C)c1-c1cc2nc(n1)NS(=O)(=O)c1cccc(c1)C(=O)N(Cc1cncnc1)[C@H](CC(C)(C)C)CO2	< 1 µM
Cc1cccc(C)c1-c1cc2nc(n1)NS(=O)(=O)c1cccc(n1)C(=O)N(CCCCC(C)(C)O)[C@H](CC(C)(C)C)CO2	< 1 µM

Prompt line: Entry Cc1cccc(C)c1-c1cc2nc(n1)NS(=O)(=O)c1cccc(c1)C(=O)N(C)CC(c1ccc(CC3(C(F)(F)F)CC3)cn1)O2 (single isomer, unassigned) [Compound 104] has what EC50?
Response line: < 1 µM

Prompt line: Please answer likewise for `Cc1cccc(C)c1-c1cc2nc(n1)NS(=O)(=O)c1cccc(c1)C(=O)N(Cc1ccccc1)[C@H](CC(C)(C)C)CO2`
Response line: < 1 µM

Prompt line: Please answer likewise for `Cc1cccc(C)c1-c1cc2nc(n1)NS(=O)(=O)c1cccc(c1)C(=O)N(Cc1cc(C(C)(C)O)n(C)n1)[C@H](CC(C)(C)C)CO2`
Response line: < 1 µM

Prompt line: Please answer likewise for `Cc1cccc(C)c1-c1cc2nc(n1)NS(=O)(=O)c1cccc(n1)C(=O)N(Cc1ccc(C(C)(C)O)cc1)[C@H](CC(C)(C)C)CO2`
Response line: < 1 µM

Prompt line: Please answer likewise for `CC(=O)NCCCN1C(=O)c2cccc(c2)S(=O)(=O)Nc2nc(cc(-c3c(C)cccc3C)n2)OC[C@H]1CC(C)C`
Response line: < 1 µM

---

- MEASUREMENT TARGET: CFTR (Homo sapiens, UniProt P13569, DEL508-508)
- Construct: endogenous in cells; host or cells: primary human bronchial epithelial cells from CF subjects (F508del/MF-HBE), differentiated at air-liquid interface
- MEASUREMENT DESCRIPTION: HBE2 assay: Ussing chamber assay of CFTR-mediated short-circuit currents
- Format: cell-based
- STUDY CONDITIONS: 3 μM corrector; F508del/MF-HBE cells; with 44 nM potentiator, 18-24 hours, 20% human serum
- Experimental: Ussing Chamber Assay of CFTR-Mediated Short-Circuit Currents After four days the apical media was removed, and the cells were grown at an air liquid interface for >14 days prior to use. To isolate the CFTR-mediated short-circuit (ISC) current, F508del/MF-HBE grown on Costar® Snapwell™ cell culture inserts were mounted in an Ussing chamber and the transepithelial ISC was measured under voltage-clamp recording conditions (Vhold=0 mV) at 37° C. […]

COMPOUND	HBE2 Activity at 3 μM (%)
Cc1cccc(C)c1-c1cc2nc(n1)NS(=O)(=O)c1cccc(c1)C(=O)N(Cc1cncc(N3CCCC4CCC43)n1)[C@H](CCC(C)(C)C)CO2 (stereo in doubt) [Compound 1781]	+++ (+++ is >60+)
Cc1cccc(C)c1-c1cc2nc(n1)NS(=O)(=O)c1cccc(c1)C(=O)N(Cc1cncc(N3CCCC[C@H]3C)n1)[C@H](CC1(C)CCC1)CO2	+++ (+++ is >60+)
Cc1cccc(C)c1-c1cc2nc(n1)NS(=O)(=O)c1cccc(c1)C(=O)N(Cc1cnc3cc(C(C)C)n(C)c3n1)[C@H](CC(C)(C)C)CO2	+++ (+++ is >60+)

---

- MEASUREMENT TARGET: CFTR (Homo sapiens, UniProt P13569)
- MEASUREMENT DESCRIPTION: Membrane potential dye, Enteroid Assay B
- Format: cell-based
- STUDY CONDITIONS: Table 8; human enteroid cells, 18-24 hours; acute 10 μM forskolin and 300 nM ivacaftor; read-out: Ent. B EC50
OBSERVABLE: EC50

As a guide, the following entries are already answered.
                                   compound                   measurement_target   reported
0  Cc1cccc(C)c1-c1cc2nc(n1)NS(=O)(=O)c1cc(n(C)n1)C(=O)N(Cc1cnccn1)[C@H](CC(C)(C)C)CO2  CFTR (Homo sapiens, UniProt P13569)  < 1000 nM
1  Cc1cccc(C)c1-c1cc2nc(n1)NS(=O)(=O)c1cccc(c1)C(=O)N(CC1CC(C(C)(C)O)C1)[C@H](CC(C)(C)C)CO2 (stereo partly drawn)  CFTR (Homo sapiens, UniProt P13569)  < 1000 nM

Proceeding to the next compound to report its EC50.
Prompt line: Entry `Cc1cccc(C)c1-c1cc2nc(n1)NS(=O)(=O)c1cccc(c1)C(=O)N(Cc1ccnc(NC(=O)OC(C)C)c1)[C@H](CC(C)(C)C)CO2` has what EC50?
Response line: < 1000 nM
